# Experiment description: activity coefficient (dimensionless); of the first substance listed, at infinite dilution; xn = mol fraction of the nth substance listed
# Particulars: 338.15 K; Liquid; Chromatography; x1 = 0
Threshold rule: activity coefficient greater than or equal to 2 is true (1); below that, false (0).

* C=CCCC [1-pentene] + COCC[N+]1(C)CCOCC1.O=S(=O)([N-]S(=O)(=O)C(F)(F)F)C(F)(F)F | true (1)
* CCCCCCC [heptane] + COCC[N+]1(C)CCOCC1.O=S(=O)([N-]S(=O)(=O)C(F)(F)F)C(F)(F)F | true (1)
* CC(C)(C)O [2-methylpropan-2-ol] + COCC[N+]1(C)CCOCC1.O=S(=O)([N-]S(=O)(=O)C(F)(F)F)C(F)(F)F | false (0)
* CC(C)OC(C)C [diisopropyl ether] + COCC[N+]1(C)CCOCC1.O=S(=O)([N-]S(=O)(=O)C(F)(F)F)C(F)(F)F | true (1)
* CCOC(C)=O [ethyl acetate] + COCC[N+]1(C)CCOCC1.O=S(=O)([N-]S(=O)(=O)C(F)(F)F)C(F)(F)F | false (0)

Lab note: next molecule to report on.
Has COC(C)(C)C [2-methoxy-2-methylpropane] + COCC[N+]1(C)CCOCC1.O=S(=O)([N-]S(=O)(=O)C(F)(F)F)C(F)(F)F a recorded activity coefficient greater than or equal to 2?
true (1)
